src = patent US20030148958A1

Measured On: T1, CRF2R
T1 sequence (Q13324 whole entry, species assumed, looked up): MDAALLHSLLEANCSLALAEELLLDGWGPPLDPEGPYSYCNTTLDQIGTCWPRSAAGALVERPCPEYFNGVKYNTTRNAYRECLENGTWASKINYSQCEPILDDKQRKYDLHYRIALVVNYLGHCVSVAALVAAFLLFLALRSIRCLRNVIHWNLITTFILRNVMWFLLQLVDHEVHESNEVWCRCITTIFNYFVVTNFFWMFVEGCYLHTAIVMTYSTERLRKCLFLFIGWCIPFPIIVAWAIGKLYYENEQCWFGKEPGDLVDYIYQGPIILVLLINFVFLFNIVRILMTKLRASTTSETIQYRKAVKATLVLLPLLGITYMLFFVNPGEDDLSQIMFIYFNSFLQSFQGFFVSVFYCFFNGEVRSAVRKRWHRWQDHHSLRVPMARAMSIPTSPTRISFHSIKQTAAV
Assay Name: cell-based or functional assay
Ends that are not written are not given here.

{"Binder": "ZGPPISIDLPFQLLRKVIEIEKQEKEKQQAANNALLLDTI (C-terminal amide) [SEQ ID NO 350]", "Unit Abbrev": "nM", "CRF2R EC50": 11.6}
{"Binder": "ZGPPISIDLPTALLRKMIEIEKQEKEKQQAANNRLLLDTI (C-terminal amide) [SEQ ID NO 301]", "Unit Abbrev": "nM", "CRF2R EC50": 50.5}
{"Binder": "DNPSLSIDLPLLLLRTLLELEKTQSQRERAEQNARIFARV-NH2 [SEQ ID NO 341]", "Unit Abbrev": "nM", "CRF2R EC50": 8.83}
{"Binder": "NDDPPISIDLPFLLLRNMIEMARIENEREQAGLNAKYLAEV-NH2 [SEQ ID NO 260]", "Unit Abbrev": "nM", "CRF2R EC50": 100}
{"Binder": "ZGPPISIDLPYQLLRKMIEIEKQEKEKQQAANNARLLAR (C-terminal amide) [SEQ ID NO 288]", "Unit Abbrev": "nM", "CRF2R EC50": 14.7}
{"Binder": "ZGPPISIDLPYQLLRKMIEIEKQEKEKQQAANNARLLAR (C-terminal amide) [SEQ ID NO 287]", "Unit Abbrev": "nM", "CRF2R EC50": 11.3}
{"Binder": "ZGPPISIDLPFQLLRKVIEIEKQEKEKQQAANNAHLLAHI (C-terminal amide) [SEQ ID NO 277]", "Unit Abbrev": "nM", "CRF2R EC50": 28.2}
{"Binder": "DNPSLSIDLPLLLLRTLLELEKTQSQRERAEQNANIFANV-NH2 [SEQ ID NO 326]", "Unit Abbrev": "nM", "CRF2R EC50": 33.7}
{"Binder": "ZGPPISIDLPFALLRKMIEIEKQEKEKQQAANNRLLLDTI (C-terminal amide) [SEQ ID NO 307]", "Unit Abbrev": "nM", "CRF2R EC50": 5.82}
{"Binder": "PSLSIDLPLLLLRTLLELEKTQSQRERAEQNAIIFASV-NH2 [SEQ ID NO 348]", "Unit Abbrev": "nM", "CRF2R EC50": 5.77}
{"Binder": "ZGPPISIDLPLYLLRKMIEIEKQEKEKQQAANNALLLATI (C-terminal amide) [SEQ ID NO 245]", "Unit Abbrev": "nM", "CRF2R EC50": 7.5}
{"Binder": "ZGPPISIDLPTWLLRKVIEIEKQEKEKQQAANNRLLLDTI (C-terminal amide) [SEQ ID NO 284]", "Unit Abbrev": "nM", "CRF2R EC50": 100}
